Read-out: Glutathione S-transferase M3 (GSTM3), GSTM3 (gene 2947)
ASSAY OVERVIEW: LTEA_HepaRG_GSTM3: Life Technologies and Expression Analysis (LTEA) Assay for Glutathione S-transferase M3 (GSTM3) using HepaRG (AID 2283501)
CONDITION NOTES: mRNA level, 48 h; actives raise or lower the signal
Calls of active or inactive are those of the source. How the source made its calls: active means hit-call score of the fitted dose curve at least 0.9, where 1 is the maximum; inactive means score below 0.9.
Respond using exactly one of the listed classes: t (active), f (inactive)

Please state the recorded outcome for this compound: CCOC(N)=O f

Please state the recorded outcome for this compound: OCCNCCO f

Please state the recorded outcome for this compound: OC[C@H]1O[C@@](CO)(O[C@H]2O[C@H](CO)[C@@H](O)[C@H](O)[C@H]2O)[C@@H](O)[C@@H]1O f

Please state the recorded outcome for this compound: Cc1nc(-c2ccccn2)ncc1C(=O)Nn1cc(C)c2cc(F)ccc21 f

Please state the recorded outcome for this compound: CCn1nc(C)c2c1C(=O)NCC(c1ccc(O)cc1)=N2 f

Please state the recorded outcome for this compound: CCCCCCCCCC f

Please state the recorded outcome for this compound: c1ccc(C(O[C@@H]2CCCN(CCc3ccc4c(c3)OCO4)C2)c2ccccc2)cc1 t

Please state the recorded outcome for this compound: O=C1CN(N=Cc2ccc([N+](=O)[O-])o2)C(=O)N1 f

Please state the recorded outcome for this compound: CCCCN1C(=O)[C@@H]([C@H](O)C2CCCCC2)NC(=O)C12CCN(Cc1ccc(Oc3ccc(C(=O)O)cc3)cc1)CC2 t

Please state the recorded outcome for this compound: CCCCOC(=O)c1ccccc1 f

Please state the recorded outcome for this compound: CC[C@H](C)C(=O)O[C@H]1C[C@H](O)C=C2C=C[C@H](C)[C@H](CC[C@@H](O)C[C@@H](O)CC(=O)O)[C@H]21 f

Please state the recorded outcome for this compound: CC(C)CCCCCCOC(=O)C1CCCCC1C(=O)OCCCCCCC(C)C (stereo not drawn) f

Please state the recorded outcome for this compound: OCCOCCOCCO f

Please state the recorded outcome for this compound: OC(CCl)CCl f

Please state the recorded outcome for this compound: CC1(C)C(=O)N(Cl)C(=O)N1Cl f

Please state the recorded outcome for this compound: NNC(=O)c1ccncc1 f

Please state the recorded outcome for this compound: CCCCCCCCN(C)C f

Please state the recorded outcome for this compound: OC[C@H]1O[C@@H]2O[C@H]3[C@H](O)[C@@H](O)[C@@H](O[C@H]4[C@H](O)[C@@H](O)[C@@H](O[C@H]5[C@H](O)[C@@H](O)[C@@H](O[C@H]6[C@H](O)[C@@H](O)[C@@H](O[C@H]7[C@H](O)[C@@H](O)[C@@H](O[C@H]1[C@H](O)[C@H]2O)O[C@@H]7CO)O[C@@H]6CO)O[C@@H]5CO)O[C@@H]4CO)O[C@@H]3CO f

Please state the recorded outcome for this compound: CCCCCCCCCCCCCCCCOS(=O)(=O)O f

Please state the recorded outcome for this compound: O=C(NO)C1(NS(=O)(=O)c2ccc(Oc3ccc(F)cc3)cc2)CCOCC1 f

Please state the recorded outcome for this compound: CCCCCCCCCCCCCCO f

Please state the recorded outcome for this compound: COS(C)(=O)=O f

Please state the recorded outcome for this compound: NC(N)=O f

----------
Read-out: MicroRNA 122 (MIR122), gene 406906
ASSAY OVERVIEW: LTEA_HepaRG_MIR122: Life Technologies and Expression Analysis (LTEA) Assay for MicroRNA 122 (MIR122) using HepaRG (AID 2283516); further: the transcript read is the microRNA miR-122
CONDITION NOTES: mRNA level, 48 h; actives raise or lower the signal
Active and inactive are the calls of the source. Rule for the calls: active = hit-call score of the fitted dose curve at least 0.9, where 1 is the maximum; inactive = score below 0.9.
Respond using exactly one of the listed classes: active, inactive

Please state the recorded outcome for this compound: O=C(O)c1ccc2c(c1)nc(C(=O)NC1CCN(C3CC3)CC1)n2Cc1cc(-c2ccc(Cl)s2)on1 inactive

Please state the recorded outcome for this compound: OCCNCCO inactive

Please state the recorded outcome for this compound: COc1cc2c(c(OC)c1OC)-c1ccc(OC)c(=O)cc1[C@@H](NC(C)=O)CC2 active

Please state the recorded outcome for this compound: CCCCCCCCCCCCCCO inactive

Please state the recorded outcome for this compound: COS(C)(=O)=O inactive

Please state the recorded outcome for this compound: CCN(CC)C(=S)SSC(=S)N(CC)CC inactive

Please state the recorded outcome for this compound: CCCC(CCC)C(=O)O inactive

Please state the recorded outcome for this compound: CCOc1ccc2[nH]cc(C(=O)NCc3ccccc3)c(=O)c2n1 inactive

Please state the recorded outcome for this compound: O=S1(=O)CCCO1 inactive

Please state the recorded outcome for this compound: OC[C@H]1O[C@@H]2O[C@H]3[C@H](O)[C@@H](O)[C@@H](O[C@H]4[C@H](O)[C@@H](O)[C@@H](O[C@H]5[C@H](O)[C@@H](O)[C@@H](O[C@H]6[C@H](O)[C@@H](O)[C@@H](O[C@H]7[C@H](O)[C@@H](O)[C@@H](O[C@H]1[C@H](O)[C@H]2O)O[C@@H]7CO)O[C@@H]6CO)O[C@@H]5CO)O[C@@H]4CO)O[C@@H]3CO inactive

Please state the recorded outcome for this compound: CCCCCCCC/C=C\CCCCCCCC(=O)OC[C@@H](O)[C@H]1OC[C@H](O)[C@H]1O inactive

Please state the recorded outcome for this compound: NNC(=O)c1ccncc1 inactive

Please state the recorded outcome for this compound: CCCCCCCCCC inactive

Please state the recorded outcome for this compound: c1ccc2ncccc2c1 inactive

Please state the recorded outcome for this compound: OCCOCCOCCO inactive

Please state the recorded outcome for this compound: C=CN1CCCC1=O inactive

Please state the recorded outcome for this compound: CCCCCCCCN(C)C inactive

Please state the recorded outcome for this compound: O=C(NO)C1(NS(=O)(=O)c2ccc(Oc3ccc(F)cc3)cc2)CCOCC1 inactive

Please state the recorded outcome for this compound: CC1(C)C(=O)N(Cl)C(=O)N1Cl inactive

Please state the recorded outcome for this compound: CCCCCCOC(=O)CC(CC(=O)OCCCCCC)(OC(=O)CCC)C(=O)OCCCCCC inactive

Please state the recorded outcome for this compound: CCCCCCCCCCCCCCCCOS(=O)(=O)O inactive

Please state the recorded outcome for this compound: O=C(O)c1cccc(C[C@@H]2COc3ccc(OCc4nc5cc(F)ccc5s4)cc3[C@@H]2O)c1 inactive

Please state the recorded outcome for this compound: CC(C)C(=O)Nc1ccc([N+](=O)[O-])c(C(F)(F)F)c1 active

Please state the recorded outcome for this compound: O=S(=O)(O)c1ccc(N=Nc2c(O)ccc3cc(S(=O)(=O)O)ccc23)cc1 inactive

Please state the recorded outcome for this compound: CCn1nc(C)c2c1C(=O)NCC(c1ccc(O)cc1)=N2 inactive

Please state the recorded outcome for this compound: COc1cc(C(C)C)c2c(c1)S(=O)(=O)N(COc1cc(=O)n3cccc(OCCN4CCCCC4)c3n1)C2=O active

Please state the recorded outcome for this compound: CCCCN1C(=O)[C@@H]([C@H](O)C2CCCCC2)NC(=O)C12CCN(Cc1ccc(Oc3ccc(C(=O)O)cc3)cc1)CC2 active

Please state the recorded outcome for this compound: Cc1nccn1-c1ccc(Sc2cccc(C3(C(N)=O)CCOCC3)c2)cc1 active

Please state the recorded outcome for this compound: NC(=O)N(O)[C@@H]1COc2cc(OCc3ccccc3)ccc21 inactive

Please state the recorded outcome for this compound: CCCCCOC(C)=O inactive

Please state the recorded outcome for this compound: C[C@@H](Oc1ccc(CNC(=O)c2cccnc2Oc2ccc3c(c2)OCO3)c(F)c1)C(=O)O inactive

Please state the recorded outcome for this compound: OCC(CO)(CO)CO inactive

Please state the recorded outcome for this compound: Nc1ccn([C@@H]2O[C@H](CO)[C@@H](O)[C@@H]2O)c(=O)n1 inactive

Please state the recorded outcome for this compound: CC(C)c1nnc2ccc(-c3ocnc3-c3cc(F)ccc3F)cn12 active

Please state the recorded outcome for this compound: O=c1[nH]cnc2c1ncn2[C@H]1CC[C@@H](CO)O1 inactive

Please state the recorded outcome for this compound: O=C1CN(N=Cc2ccc([N+](=O)[O-])o2)C(=O)N1 inactive

Please state the recorded outcome for this compound: c1ccc2c(c1)-c1cccc3c1c-2cc1ccccc13 active

Please state the recorded outcome for this compound: NC(=O)N1c2ccccc2C=Cc2ccccc21 inactive

Please state the recorded outcome for this compound: c1ccc2cc3ccccc3cc2c1 inactive

Please state the recorded outcome for this compound: Cc1nc(-c2ccccn2)ncc1C(=O)Nn1cc(C)c2cc(F)ccc21 active

Please state the recorded outcome for this compound: C=CCc1cc(S(=O)(=O)c2ccc(O)c(CC=C)c2)ccc1O active

Please state the recorded outcome for this compound: CCCOc1ccc(S(=O)(=O)N2CCN(CC)CC2)cc1-c1nc2c(CC)n(Cc3ccccn3)nc2c(=O)[nH]1 inactive

Please state the recorded outcome for this compound: CC[C@H](C)C(=O)O[C@H]1C[C@H](O)C=C2C=C[C@H](C)[C@H](CC[C@@H](O)C[C@@H](O)CC(=O)O)[C@H]21 inactive

Please state the recorded outcome for this compound: CCc1cccc(CC)c1N inactive

Please state the recorded outcome for this compound: O=C(O)c1cccc(C(=O)O)c1 inactive

Please state the recorded outcome for this compound: CCOC(N)=O inactive

Please state the recorded outcome for this compound: OC[C@H]1O[C@@](CO)(O[C@H]2O[C@H](CO)[C@@H](O)[C@H](O)[C@H]2O)[C@@H](O)[C@@H]1O inactive
